Origin of measurements: ChEMBL document CHEMBL4622963

- procedureDetails: Volume of distribution at steady state in mouse at 2 mg/kg, iv administered as infusion or 5 mg/kg, po via gavage measured up to 24 hrs by LC-MS analysis
- Format: ADME, organism-based
- conditionNotes: in vivo, read-out: Vdss

[
  {
    "smilesRecord": "CC(C)Nc1cc(Nc2nc3ccnn3cc2F)ncc1C(=O)NC[C@@H](F)C(C)(C)O",
    "Vd [L/kg]": 2
  }
]

====

- procedureDetails: Oral bioavailability in mouse at 3 mg/kg administered via gavage measured up to 24 hrs by LC-MS analysis
- Format: ADME, organism-based
- conditionNotes: in vivo
property: bioavailability (%)

[
  {
    "smilesRecord": "CC(C)Nc1cc(Nc2ccc3nonc3c2)ncc1C(=O)NC[C@@H](F)C(C)(C)O",
    "value": 65
  }
]

====

- procedureDetails: Volume of distribution at steady state in mouse at 2 mg/kg, iv administered as infusion or 2 mg/kg, po via gavage measured up to 24 hrs by LC-MS analysis
- Type: ADME, organism-based
- conditionNotes: in vivo, read-out: Vdss

[
  {
    "smilesRecord": "CC(C)Nc1cc(Nc2ccn3nccc3n2)ncc1C(=O)NC[C@@H](F)C(C)(C)O",
    "Vd": "3 L/kg"
  }
]

====

Below, each of the compounds is paired with its reported pIC50 value.
- assayTarget: Mast/stem cell growth factor receptor Kit (Homo sapiens)
- Sequence (P10721 whole entry): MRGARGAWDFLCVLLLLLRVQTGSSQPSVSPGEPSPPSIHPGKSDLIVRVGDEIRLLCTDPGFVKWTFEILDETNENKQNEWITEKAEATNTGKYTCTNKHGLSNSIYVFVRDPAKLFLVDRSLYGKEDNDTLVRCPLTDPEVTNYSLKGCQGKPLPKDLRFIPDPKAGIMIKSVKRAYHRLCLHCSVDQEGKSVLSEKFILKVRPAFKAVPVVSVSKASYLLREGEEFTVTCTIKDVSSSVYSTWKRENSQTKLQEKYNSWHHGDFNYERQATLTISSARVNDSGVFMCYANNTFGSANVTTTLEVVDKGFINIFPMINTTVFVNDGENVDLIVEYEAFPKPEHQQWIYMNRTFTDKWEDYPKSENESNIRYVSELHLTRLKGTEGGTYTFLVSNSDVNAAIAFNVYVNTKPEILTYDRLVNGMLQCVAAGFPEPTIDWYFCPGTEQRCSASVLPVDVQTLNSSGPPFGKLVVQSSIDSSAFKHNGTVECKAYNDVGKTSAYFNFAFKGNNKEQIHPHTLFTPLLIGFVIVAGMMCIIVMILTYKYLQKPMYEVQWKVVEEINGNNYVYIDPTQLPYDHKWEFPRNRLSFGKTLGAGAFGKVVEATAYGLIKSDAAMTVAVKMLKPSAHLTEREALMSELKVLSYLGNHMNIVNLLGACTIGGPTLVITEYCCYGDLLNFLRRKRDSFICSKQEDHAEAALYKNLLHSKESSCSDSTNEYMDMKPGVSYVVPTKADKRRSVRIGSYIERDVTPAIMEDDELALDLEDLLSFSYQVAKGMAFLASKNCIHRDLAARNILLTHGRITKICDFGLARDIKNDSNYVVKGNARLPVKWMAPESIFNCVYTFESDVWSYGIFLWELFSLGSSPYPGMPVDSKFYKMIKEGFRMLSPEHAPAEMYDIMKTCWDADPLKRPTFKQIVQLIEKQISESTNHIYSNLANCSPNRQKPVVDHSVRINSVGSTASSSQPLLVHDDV
- procedureDetails: Inhibition of recombinant N-terminal GST-tagged human cKit (544 to end residues) expressed in baculovirus infected Sf21 cells
pIC50: −log10 of the molar value.
property: pIC50

[
  {
    "smilesRecord": "CC(C)Nc1cc(Nc2ccn3nccc3n2)ncc1C(=O)NC[C@@H](F)C(C)(C)O",
    "resultOperator": "=",
    "value": 7.62
  },
  {
    "smilesRecord": "CC(C)Nc1cc(Nc2nc3ccnn3cc2F)ncc1C(=O)NC[C@@H](F)C(C)(C)O",
    "resultOperator": "<",
    "value": 5.70
  }
]

====

- procedureDetails: Drug uptake in imiquimod-induced C57BL/6 mouse model of psoriasis at 1 mg/kg, po dosed via gavage twice daily and measured after 2 hrs by LC-MS analysis
- Format: ADME, organism-based
- conditionNotes: in vivo, read-out: Drug uptake

[
  {
    "smilesRecord": "CC(C)Nc1cc(Nc2nc3ccnn3cc2F)ncc1C(=O)NC[C@@H](F)C(C)(C)O",
    "measureUnit": "nM",
    "concentration at 2 h": 400
  }
]

====

- Organism: Homo sapiens
- procedureDetails: Selectivity index, ratio of IC50 for N-terminal His6-tagged human full length recombinant LCK expressed in baculovirus infected Sf21 cells to IC50 for IRAK4 (unknown origin)
The reader will find reported Ratio IC50 values listed item by item below.

[
  {
    "smilesRecord": "Cc1nc2ccc(Nc3cc(NC(C)C)c(C(=O)NC[C@@H](F)C(C)(C)O)cn3)cc2s1",
    "Ratio IC50": 3500
  },
  {
    "smilesRecord": "CC(C)Nc1cc(Nc2ccc3ncsc3c2)ncc1C(=O)NCCC(C)(C)O",
    "Ratio IC50": 104
  },
  {
    "smilesRecord": "CC(C)Nc1cc(Nc2nc3ccnn3cc2F)ncc1C(=O)NC[C@@H](F)C(C)(C)O",
    "Ratio IC50": "> 590"
  },
  {
    "smilesRecord": "CC(C)Nc1cc(Nc2ccc3nonc3c2)ncc1C(=O)NC[C@@H](F)C(C)(C)O",
    "Ratio IC50": 190
  },
  {
    "smilesRecord": "CC(C)Nc1cc(Nc2ccn3nccc3n2)ncc1C(=O)NC[C@@H](F)C(C)(C)O",
    "Ratio IC50": 130
  }
]
